system: OVCAR-8 ovarian; assay: NCI tumour cell line growth inhibition, 48 h
Entries and their TGI values follow.

Solved cases (4 shown):
Cc1[nH]n(-c2ccccc2)c(=S)c1C(=O)c1ccccc1 :: > 100 µM
O=C1Nc2ccccc2SC1C1SC(=S)N(Cc2ccccc2)C1=O (stereo not drawn) :: > 88.2 µM
COC(=O)c1ccccc1CC1Cc2cc3c(cc2C1)CCC3 :: > 100 µM
CC(C)CCNC(=O)c1ccc(CNC(=O)/C=C/c2ccc(-c3ccccc3[N+](=O)[O-])o2)cc1 :: > 100 µM

Switching to the query record.
INPUT: Query for OVCAR-8 ovarian: what TGI does the record show for c1ccc(-c2cc(-c3cc(-c4ccccn4)[nH]n3)n[nH]2)nc1 ?
OUTPUT: > 100 µM
